Listed next: entries and their corresponding IC50.
# assayed-system: human pentameric central module (BTG2-Caf1/CNOT7-Ccr4/CNOT6L-CNOT1-CNOT9) of Ccr4-Not (Homo sapiens, UniProt Q9UIV1)
# Construct: pentamer reconstituted from separately purified nuclease module and CNOT1 (MIF4G and DUF3819 domains, 1093-1595)-CNOT9 (ARM domain, 33-283) dimer; E. coli; with CCR4-NOT transcription complex subunit 6-like; Protein BTG2; CCR4-NOT transcription complex subunit 1; CCR4-NOT transcription complex subunit 9
# Sequence (Q9UIV1 whole entry, other chains not shown, the tested form may be a part): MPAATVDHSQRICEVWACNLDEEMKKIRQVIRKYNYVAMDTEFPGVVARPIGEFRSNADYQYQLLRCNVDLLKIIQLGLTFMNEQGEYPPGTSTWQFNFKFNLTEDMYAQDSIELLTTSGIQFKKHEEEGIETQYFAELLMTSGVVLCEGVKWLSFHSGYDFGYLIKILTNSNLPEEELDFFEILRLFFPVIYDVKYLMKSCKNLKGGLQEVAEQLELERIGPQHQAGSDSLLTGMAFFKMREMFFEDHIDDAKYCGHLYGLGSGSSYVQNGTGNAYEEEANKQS
# Sequence (P78543 whole entry partner, other chains not shown, the tested form may be a part): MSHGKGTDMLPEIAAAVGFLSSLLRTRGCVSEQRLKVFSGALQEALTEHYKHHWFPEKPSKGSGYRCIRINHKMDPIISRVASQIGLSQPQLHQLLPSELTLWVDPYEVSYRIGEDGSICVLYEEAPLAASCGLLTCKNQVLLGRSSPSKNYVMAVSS
# Sequence (A5YKK6 1093-1595 partner, other chains not shown): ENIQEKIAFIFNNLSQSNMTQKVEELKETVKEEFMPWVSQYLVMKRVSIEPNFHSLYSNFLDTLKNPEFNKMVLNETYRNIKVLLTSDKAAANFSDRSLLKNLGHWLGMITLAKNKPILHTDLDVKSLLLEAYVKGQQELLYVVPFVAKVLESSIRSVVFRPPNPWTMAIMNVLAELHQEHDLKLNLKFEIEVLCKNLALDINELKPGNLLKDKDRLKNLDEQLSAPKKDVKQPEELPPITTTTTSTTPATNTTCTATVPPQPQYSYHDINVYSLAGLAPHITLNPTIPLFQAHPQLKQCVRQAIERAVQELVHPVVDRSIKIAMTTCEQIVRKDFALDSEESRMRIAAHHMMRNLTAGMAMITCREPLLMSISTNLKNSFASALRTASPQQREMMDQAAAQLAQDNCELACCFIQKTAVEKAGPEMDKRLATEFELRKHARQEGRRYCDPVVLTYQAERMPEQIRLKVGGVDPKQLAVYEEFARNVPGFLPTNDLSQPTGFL
# Sequence (Q92600 33-283 partner, other chains not shown): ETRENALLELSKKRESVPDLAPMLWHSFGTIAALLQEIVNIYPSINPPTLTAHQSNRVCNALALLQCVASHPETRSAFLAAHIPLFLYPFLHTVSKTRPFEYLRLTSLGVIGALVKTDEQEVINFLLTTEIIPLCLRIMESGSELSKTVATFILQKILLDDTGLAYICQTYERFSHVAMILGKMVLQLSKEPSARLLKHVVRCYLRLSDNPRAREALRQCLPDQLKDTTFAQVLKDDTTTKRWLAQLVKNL
# test: chemiluminescence-based AMP detection (AMP-Glo) deadenylase assay
# Assay type: biochemical
# details: read-out: IC50 (μM) vs pentameric Caf1-complex ^d

CN(C)CCCn1c(=O)n(O)c(=O)c2c1ncn2CCc1ccccc1 [compound 5, 1-hydroxy-xanthine compound 5]: 0.98 µM

// below: IC50 requested for another molecule
Problem: Need IC50 of O=c1[nH]c2ncn(Cc3ccccc3)c2c(=O)n1O [compound 1, 1-hydroxy-xanthine compound 1] , thanks.
Result: 10.8 µM

###

# assayed-system: human Caf1/CNOT7 (Homo sapiens)
# Construct: isolated recombinant wild-type Caf1 subunit, expressed and purified from Escherichia coli BL21(DE3)
# test: chemiluminescence-based AMP detection (AMP-Glo) deadenylase assay
# Assay type: biochemical
# details: read-out: IC50 (μM) vs Caf1 ^b
Entries and their measured IC50 follow.
Response body: numeric value in µM, unit text excluded.

CN(C)CCCn1c(=O)n(O)c(=O)c2c1ncn2CCc1ccccc1 [compound 5, 1-hydroxy-xanthine compound 5]: 0.79

Kindly consider the entry below.
Problem: Could you share which IC50 value was measured for O=c1[nH]c2ncn(Cc3ccccc3)c2c(=O)n1O [compound 1, 1-hydroxy-xanthine compound 1] ?
Result: 12.7
